- procedure details: in vitro
- conditions: human, Caco-2, pH 6.5, Permeability, Mean (SD)
Where a name gives a salt, the structure may show the parent alone.
property name: Papp B→A (×10⁻⁶ cm/s)
Give bare numbers, in ×10⁻⁶ cm/s.

# query: Papp B→A of entry CCC(=O)C(C[C@H](C)N(C)C)(c1ccccc1)c1ccccc1 [esmethadone HCl] 28.6

====

- measurement target: hERG (Homo sapiens, UniProt Q12809)
- Sequence (Q12809 whole entry): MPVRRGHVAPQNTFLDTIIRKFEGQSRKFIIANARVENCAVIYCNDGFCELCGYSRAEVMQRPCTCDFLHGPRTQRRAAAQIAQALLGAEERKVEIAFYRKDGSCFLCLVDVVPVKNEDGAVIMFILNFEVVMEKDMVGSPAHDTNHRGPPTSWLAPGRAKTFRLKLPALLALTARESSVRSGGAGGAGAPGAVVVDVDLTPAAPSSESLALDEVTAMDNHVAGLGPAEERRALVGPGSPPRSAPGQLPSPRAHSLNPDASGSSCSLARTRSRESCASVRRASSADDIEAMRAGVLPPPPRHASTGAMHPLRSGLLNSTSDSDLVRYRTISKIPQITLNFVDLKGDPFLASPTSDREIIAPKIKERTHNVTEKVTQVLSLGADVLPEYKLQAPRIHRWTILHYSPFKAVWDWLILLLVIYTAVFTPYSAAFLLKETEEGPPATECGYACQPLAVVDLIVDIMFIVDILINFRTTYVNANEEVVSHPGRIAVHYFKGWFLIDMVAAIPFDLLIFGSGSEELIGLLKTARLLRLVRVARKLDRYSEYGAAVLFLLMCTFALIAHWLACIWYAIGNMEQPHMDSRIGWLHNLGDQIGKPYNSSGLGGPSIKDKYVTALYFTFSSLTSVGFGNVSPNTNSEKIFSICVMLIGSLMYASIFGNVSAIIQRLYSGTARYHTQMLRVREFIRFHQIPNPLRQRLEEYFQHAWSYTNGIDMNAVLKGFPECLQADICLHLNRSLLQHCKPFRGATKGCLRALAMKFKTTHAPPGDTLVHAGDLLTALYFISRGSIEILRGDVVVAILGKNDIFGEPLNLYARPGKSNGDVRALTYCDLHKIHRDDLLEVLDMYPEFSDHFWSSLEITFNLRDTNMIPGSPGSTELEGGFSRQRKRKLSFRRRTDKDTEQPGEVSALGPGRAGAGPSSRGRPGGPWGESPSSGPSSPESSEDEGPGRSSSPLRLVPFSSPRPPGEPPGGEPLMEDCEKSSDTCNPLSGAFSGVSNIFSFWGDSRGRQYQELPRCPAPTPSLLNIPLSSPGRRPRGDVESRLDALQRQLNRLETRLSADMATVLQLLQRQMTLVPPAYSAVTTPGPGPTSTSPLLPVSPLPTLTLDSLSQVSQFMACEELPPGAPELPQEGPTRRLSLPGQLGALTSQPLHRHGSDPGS
- procedure details: GLP hERG channel current study of esmethadone
- conditions: human
property name: inhibition at 10 µM
Quick note: number first, unit second.

# get_value(readout='inhibition at 10 µM', item= CCC(=O)C(C[C@H](C)N(C)C)(c1ccccc1)c1ccccc1 [esmethadone] ) 88.6%

====

- procedure details: in vitro
- conditions: human, Caco-2, Percent Recovery, Rep. 1-3, B-A, 10 μM
Record form. Attribute: recovery. Fill in for each entry.
One number for each entry, in %.

CC(C)NCC(O)COc1cccc2ccccc12 (centres unmarked) [Propranolol]    106

Below: the item to evaluate.
Reported recovery, compound COc1cc2c(c(OC)c1OC)-c1ccc(OC)c(=O)cc1[C@@H](NC(C)=O)CC2 [Colchicine] : ____ 88

====

- procedure details: Equilibrium solubility study
- conditions: 37 °C, pH 6.8, aqueous buffer, thermodynamic from solid, Equilibrium solubility, replicates, pH 6.8, 37° C., individual replicates
Counter-ions that a name gives are not always drawn.
property name: solubility thermodynamic (µg/mL)
Answers are plain numbers, in µg/mL.

Look at this compound and give its reported solubility thermodynamic. CCC(=O)C(C[C@H](C)N(C)C)(c1ccccc1)c1ccccc1 [esmethadone HCl] 3100

====

- procedure details: in vitro
- conditions: human, Caco-2, Percent Recovery, Mean (SD), A-B, 10 μg/mL
Where a name gives a salt, the structure may show the parent alone.
property name: recovery (%)
Give bare numbers, in %.

Reported recovery for CCC(=O)C(C[C@H](C)N(C)C)(c1ccccc1)c1ccccc1 [esmethadone HCl] : what is it? 57

====

- procedure details: in vitro
- conditions: human, Caco-2, Mean recovery values, across the assays
Structures can show the parent of a compound that is named as a salt.
property name: recovery

Param item = CCC(=O)C(C[C@H](C)N(C)C)(c1ccccc1)c1ccccc1 [esmethadone HCl] ; retrieve measured recovery. 51 to 74%

====

Please respond with reported recovery for every item in the list.
- procedure details: in vitro
- conditions: human, Caco-2, Percent Recovery, Mean, B-A, 10 μM

COc1cc2c(c(OC)c1OC)-c1ccc(OC)c(=O)cc1[C@@H](NC(C)=O)CC2    91%

For the next question, use this molecule.
Please look up its recovery: CC(C)NCC(O)COc1cccc2ccccc12 (centres unmarked) 108%

====

- procedure details: in vitro
- conditions: human, Caco-2, Percent Recovery, Mean (SD), A-B, 1 μg/mL
- Method: Based on historical data obtained in the experimental model, the mean permeability value (Papp) for each reference compound was expected to fall within the predetermined specifications. Fluorescein was used as the zero-permeability marker in all Caco-2 cell assays as a quality control for the integrity of the Caco-2 monolayer. […] Testing concentrations for the in vitro permeability assessment were determined at 1%, 10%, and 100% of the highest strength dissolved in 250 mL. […]
Where a name gives a salt, the structure may show the parent alone.
property name: recovery (%)
Numbers only, in %.

Which measured recovery value corresponds to CCC(=O)C(C[C@H](C)N(C)C)(c1ccccc1)c1ccccc1 [esmethadone HCl] ? 51

Provenance of the data: patent US20240122878A1
